# System: SpsB (Staphylococcus aureus signal peptidase) (Staphylococcus aureus)
# Construct: This assay uses a suspension of Staphylococcus aureus cells as a source of SpsB instead of recombinant SpsB protein; endogenous in cells; host or cells: S. aureus, USA300 background, overexpressing SpsB (whole-cell suspension from frozen pellets)
# Assay details: cell-based
# Assay type: biochemical
# Assay context: SpsB IC50, whole-cell S. aureus (USA300 background, overexpressing SpsB) as SpsB source; fluorogenic peptide substrate, kinetic read 30 min
Mark y for IC50 under 0.9 nM, n if at or over.

Check out these entries, answers already filled in.
{"Molecule": "CCCCCCCCCCCCCC(=O)N[C@@H](CCN)C(=O)N(C)[C@@H]1C(=O)N[C@@H](C)C(=O)N[C@H](C(=O)NCC#N)Cc2ccc(OCCN)c(c2)-c2cc1ccc2OCCO [Compound 329]", "Group label": "y"}
{"Molecule": "CCCCCCCCC(O)C(=O)NC(CO)C(=O)N(C)C1C(=O)NC(C)C(=O)NC(C(=O)NCC#N)Cc2ccc(OCCN)c(c2)-c2cc1ccc2OCCN (single isomer, unassigned) [Compound 393-P2]", "Group label": "n"}
{"Molecule": "CCCCCCCCc1ccc(C(=O)N[C@@H](CCN)C(=O)N(C)[C@@H]2C(=O)N[C@@H](C)C(=O)N[C@H](C(=O)NCC#N)Cc3ccc(OCCN)c(c3)-c3cc2ccc3OCCN)c(CC(N)=O)c1 [Compound 448]", "Group label": "n"}

Regarding Cc1nc(-c2ccc(CC(C)C)cc2)sc1C(=O)N[C@@H](CCN)C(=O)N(C)[C@@H]1C(=O)N[C@@H](C)C(=O)N[C@H](C(=O)NCC#N)Cc2ccc(OCCN)c(c2)-c2cc1ccc2OCCN [Compound 166] , kindly confirm whether its IC50 is beneath 0.9 nM. y

Find out if reported IC50 for CCCCc1ccc(-c2ccc(C(=O)N[C@@H](CC3CCNCC3)C(=O)N(C)[C@@H]3C(=O)N[C@@H](C)C(=O)N[C@H](C(=O)NCC#N)Cc4ccc(OCCN)c(c4)-c4cc3ccc4OCCN)cc2)cc1 [Compound 477] is less than 0.9 nM y

====

# System: SpsB (Staphylococcus aureus signal peptidase) (Staphylococcus aureus, UniProt P0A070)
# Construct: This assay uses a suspension of Staphylococcus aureus cells as a source of SpsB instead of recombinant SpsB protein; endogenous in cells; host or cells: S. aureus, USA300 background, overexpressing SpsB (whole-cell suspension from frozen pellets)
# Sequence (P0A070 whole entry): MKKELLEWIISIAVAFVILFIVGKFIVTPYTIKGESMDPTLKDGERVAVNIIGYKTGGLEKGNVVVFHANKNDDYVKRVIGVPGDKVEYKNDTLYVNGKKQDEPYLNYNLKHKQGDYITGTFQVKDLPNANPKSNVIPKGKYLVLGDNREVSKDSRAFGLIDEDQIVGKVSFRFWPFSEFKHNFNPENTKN
# Assay details: cell-based
# Format: biochemical
# Assay context: SpsB IC50, whole-cell S. aureus (USA300 background, overexpressing SpsB) as SpsB source; fluorogenic peptide substrate, kinetic read 30 min
Measured quantity: pIC50
Just so you know, pIC50 here is -log10 of the concentration in molar units; reply with that number alone.

{"Compound": "CCCCCCCCCC(=O)N[C@@H](CO)C(=O)N[C@@H](CCN)C(=O)N(C)[C@@H]1C(=O)N[C@@H](C)C(=O)N[C@H](C(=O)NCC#N)Cc2ccc(OCCN)c(c2)-c2cc1ccc2OCCN [Compound 360]", "System": "SpsB (Staphylococcus aureus signal peptidase) (Staphylococcus aureus, UniProt P0A070)", "pIC50": 8.92}
{"Compound": "C[C@@H]1NC(=O)[C@@H](N(C)C(=O)[C@H](CCCCN)NC(=O)c2ccc(-c3ccc(Cl)cc3)cc2)c2ccc(OCC(O)CN)c(c2)-c2cc(ccc2O)C[C@@H](C(=O)NCC#N)NC1=O (mixture of isomers) [Compound 514]", "System": "SpsB (Staphylococcus aureus signal peptidase) (Staphylococcus aureus, UniProt P0A070)", "pIC50": 8.70}
{"Compound": "CCCCCCOc1ccc(C(=O)N[C@@H](CCN)C(=O)N(C)[C@@H]2C(=O)N[C@@H](C)C(=O)N[C@H](C(=O)NCC#N)Cc3ccc(OCCN)c(c3)-c3cc2ccc3OCCN)c(Cl)c1 [Compound 271]", "System": "SpsB (Staphylococcus aureus signal peptidase) (Staphylococcus aureus, UniProt P0A070)", "pIC50": 8.96}

Bench note: what pIC50 did CCCCCCCOc1c(F)cc(C(=O)N[C@@H](CCN)C(=O)N(C)[C@@H]2C(=O)N[C@@H](C)C(=O)N[C@H](C(=O)NCC#N)Cc3ccc(OCCN)c(c3)-c3cc2ccc3OCCN)cc1Cl [Compound 293] show? 8.82

====

Items are presented alongside their recorded IC50.
# System: SpsB (Staphylococcus aureus signal peptidase) (Staphylococcus aureus, UniProt P0A070)
# Construct: This assay uses a suspension of Staphylococcus aureus cells as a source of SpsB instead of recombinant SpsB protein; endogenous in cells; host or cells: S. aureus, USA300 background, overexpressing SpsB (whole-cell suspension from frozen pellets)
# Assay details: cell-based
# Format: biochemical
# Assay context: SpsB IC50, whole-cell S. aureus (USA300 background, overexpressing SpsB) as SpsB source; fluorogenic peptide substrate, kinetic read 30 min
The figure you give is taken to be in nM; do not add the unit.

{"Molecule": "CCCCCCCCc1ccc(C(=O)N[C@@H](CCN)C(=O)N(C)[C@@H]2C(=O)N[C@@H](C)C(=O)N[C@H](C(=O)NCC#N)Cc3ccc(OCCN)c(c3)-c3cc2ccc3OCCN)c(N)c1 [Compound 223]", "Value units": "nM", "IC50": 1.5}
{"Molecule": "CCc1cnc(-c2ccc(C(=O)N[C@@H](CCN)C(=O)N(C)[C@@H]3C(=O)N[C@@H](C)C(=O)N[C@H](C(=O)NCC#N)Cc4ccc(OCCN)c(c4)-c4cc3ccc4OCCN)c(C)c2)nc1 [Compound 176]", "Value units": "nM", "IC50": 2.6}
{"Molecule": "CCCCCCCCc1ccc(C(=O)N[C@@H](CCCCN)C(=O)N(C)[C@@H]2C(=O)N[C@@H](C)C(=O)N[C@H](C(=O)NCC#N)Cc3ccc(OC)c(c3)-c3cc2ccc3OC)cc1 [Compound 470]", "Value units": "nM", "IC50": 24}
{"Molecule": "CCCCCCCCc1ccc(C(=O)N[C@@H](CCCN)C(=O)N(C)[C@@H]2C(=O)N[C@@H](C)C(=O)N[C@H](C(=O)NCC#N)Cc3ccc(OCCCN)c(c3)-c3cc2ccc3OCCCN)cc1 [Compound 457]", "Value units": "nM", "IC50": 0.64}

Data request, read-out IC50, for CCCCCCCOc1ccc(C(=O)N[C@@H](CCN)C(=O)N(C)[C@@H]2C(=O)N[C@@H](C)C(=O)N[C@H](C(=O)NCC#N)Cc3ccc(OCCN)c(c3)-c3cc2ccc3OCCN)c(Cl)c1 [Compound 267] 0.63

Please look up its IC50: CCCCCCCCCC(=O)N[C@@H](CCO)C(=O)N[C@@H](CCN)C(=O)N(C)[C@@H]1C(=O)N[C@@H](C)C(=O)N[C@H](C(=O)NCC#N)Cc2ccc(OCCN)c(c2)-c2cc1ccc2OCCN [Compound 378] 0.87

Which IC50 reading was recorded for the molecule CCCCCCCc1cc(C)c(C(=O)N[C@@H](CCN)C(=O)N(C)[C@@H]2C(=O)N[C@@H](C)C(=O)N[C@H](C(=O)NCC#N)Cc3ccc(OCCN)c(c3)-c3cc2ccc3OCCN)c(F)c1 [Compound 188] ? 0.67

Requested read-out: IC50. Entry: CCCCCCCCc1ccc(C(=O)N[C@@H](CCN)C(=O)N(C)[C@@H]2C(=O)N[C@@H](C)C(=O)N[C@H](C(=O)NCC#N)Cc3ccc(OCCN)c(c3)-c3cc2ccc3OCCN)c(SC)c1 [Compound 185] 0.91

Sample Cc1cc(C#CC2CCCCC2)ccc1C(=O)N[C@@H](CCN)C(=O)N(C)[C@@H]1C(=O)N[C@@H](C)C(=O)N[C@H](C(=O)NCC#N)Cc2ccc(OCCN)c(c2)-c2cc1ccc2OCCN [Compound 310] — what was its IC50? 0.99

May I ask what IC50 has been recorded for CCCCc1ccc(-c2ccc(C(=O)N[C@@H](CCCCN)C(=O)N(C)[C@@H]3C(=O)N[C@@H](C)C(=O)N[C@H](C(=O)NCC#N)Cc4ccc(OCCN)c(c4)-c4cc3ccc4OCCN)cc2)cc1 [Compound 331] ? 0.34

Item CCCCc1ccc(C(=O)N[C@@H](CCC)C(=O)N[C@@H](CCN)C(=O)N(C)[C@@H]2C(=O)N[C@@H](C)C(=O)N[C@H](C(=O)NCC#N)Cc3ccc(OCCN)c(c3)-c3cc2ccc3OCCN)c(C)c1 [Compound 355] has what recorded IC50? 1.1

What does the data say about its IC50? Entry: CCCCCCCCS(=O)(=O)N[C@@H](CO)C(=O)N(C)[C@@H]1C(=O)N[C@@H](C)C(=O)N[C@H](C(=O)NCC#N)Cc2ccc(OCCN)c(c2)-c2cc1ccc2OCCN [Compound 345] 2.2

Sample Cc1nc(-c2ccc(CC(C)C)cc2)ncc1C(=O)N[C@@H](CCN)C(=O)N(C)[C@@H]1C(=O)N[C@@H](C)C(=O)N[C@H](C(=O)NCC#N)Cc2ccc(OCCN)c(c2)-c2cc1ccc2OCCN [Compound 157] — what was its IC50? 0.79

Consider the molecule CCCCCCCCc1ccc(C(=O)N[C@@H](CCNCC(=O)O)C(=O)N(C)[C@@H]2C(=O)N[C@@H](C)C(=O)N[C@H](C(=O)NCC#N)Cc3ccc(OCCN)c(c3)-c3cc2ccc3OCCN)c(C)c1 [Compound 263] and give its measured IC50. 1.1

Form field: reported IC50 of CCCC#Cc1ccc(C(=O)N[C@@H](CCN)C(=O)N(C)[C@@H]2C(=O)N[C@@H](C)C(=O)N[C@H](C(=O)NCC#N)Cc3ccc(OCCN)c(c3)-c3cc2ccc3OCCN)c(C)c1 [Compound 307] 3.5

Any idea what IC50 was measured for CCCCCCCCCC(=O)N[C@@H](CCN)C(=O)N(C)[C@@H]1C(=O)N[C@@H](C)C(=O)N[C@H](C(=O)NCC#N)Cc2ccc(OCCN)c(c2)-c2cc1ccc2OCCN [Compound 105] ? 0.82

Given the molecule CCCCCCCc1cc(C)c(C(=O)N[C@@H](CCN)C(=O)N(C)[C@@H]2C(=O)N[C@@H](C)C(=O)N[C@H](C(=O)NCC#N)Cc3ccc(OCCN)c(c3)-c3cc2ccc3OCCN)cn1 [Compound 313] , what is its reported IC50? 0.68

For the molecule shown here, CCCCCCCc1ccc(C(=O)N[C@@H](CCO)C(=O)N(C)[C@@H]2C(=O)N[C@@H](C)C(=O)N[C@H](C(=O)NCC#N)Cc3ccc(OCCN)c(c3)-c3cc2ccc3OCCN)c(C)c1 [Compound 260] , give the reported IC50. 1.1
